Source of measurements: patent US12378247B2

procedure.details: Calcein AM cytotoxicity assay, RPMI 8226
Format: cell-based
run.parameters: human, RPMI 8226 cells (multiple myeloma); RPMI 8226, 3-day Calcein-AM assay; read-out: Cytotoxic activity IC50
Counter-ions that a name gives are not always drawn.
property.label: IC50 at 72 h

# IC50 at 72 h of Oc1ccc(CNc2ncnc3nc[nH]c23)cc1 [para-topolin mesylate] = > 167 µM

###

procedure.details: Solubility in various organic solvents
Assay type: physicochemical
run.parameters: acetonitrile, organic solvent or mixture, thermodynamic from solid, acetonitrile; read-out: Solubility
property.label: Solubility

# Solubility of Oc1ccc(CNc2ncnc3nc[nH]c23)cc1 [para-topolin, 6-(4-Hydroxybenzylamino) purine] = < 250 µg/mL

###

procedure.details: Calcein AM cytotoxicity assay, MCF7
Format: cell-based
run.parameters: human, MCF-7 cells (breast adenocarcinoma); MCF7, 3-day Calcein-AM assay; read-out: Cytotoxic activity IC50
Counter-ions that a name gives are not always drawn.
property.label: IC50 at 72 h

# IC50 at 72 h of Oc1ccc(CNc2ncnc3nc[nH]c23)cc1 [para-topolin mesylate] = > 167 µM

###

procedure.details: Calcein AM cytotoxicity assay, CEM
Assay type: cell-based
run.parameters: human, CEM cells (T-lymphoblastic leukaemia), 3-day Calcein-AM assay, read-out: Cytotoxic activity IC50
Structures can show the parent of a compound that is named as a salt.
property.label: IC50 at 72 h

# IC50 at 72 h of Oc1ccc(CNc2ncnc3nc[nH]c23)cc1 [para-topolin mesylate] = > 167 µM

###

System: RPMI 8226 (multiple myeloma)
procedure.details: Calcein AM cytotoxicity assay, RPMI 8226
Format: cell-based
run.parameters: RPMI 8226, 3-day Calcein-AM assay; read-out: Cytotoxic activity IC50
pIC50: −log10 of the molar value.
property.label: pIC50

Reported pIC50 (RPMI 8226 (multiple myeloma)) for entry Oc1ccc(CNc2ncnc3nc[nH]c23)cc1 [para-topolin, 6-(4-Hydroxybenzylamino) purine] is < 3.78

###

procedure.details: Solubility in various organic solvents
Assay type: physicochemical
run.parameters: heptane, organic solvent or mixture, thermodynamic from solid, heptane; read-out: Solubility
property.label: Solubility

# Solubility of Oc1ccc(CNc2ncnc3nc[nH]c23)cc1 [para-topolin, 6-(4-Hydroxybenzylamino) purine] = < 100 µg/mL

###

procedure.details: Calcein AM cytotoxicity assay, K562
Assay type: cell-based
run.parameters: human, K562 cells (chronic myelogenous leukaemia), K562, 3-day Calcein-AM assay; read-out: Cytotoxic activity IC50
Structures can show the parent of a compound that is named as a salt.
property.label: IC50 at 72 h

# IC50 at 72 h of Oc1ccc(CNc2ncnc3nc[nH]c23)cc1 [para-topolin mesylate] = > 167 µM

###

procedure.details: Solubility in various organic solvents
Assay type: physicochemical
run.parameters: acetone, organic solvent or mixture, thermodynamic from solid, acetone; read-out: Solubility
property.label: Solubility (µg/mL)
Entry rule: numbers only, all in µg/mL.

# Solubility of Oc1ccc(CNc2ncnc3nc[nH]c23)cc1 [para-topolin, 6-(4-Hydroxybenzylamino) purine] = 200

###

procedure.details: Calcein AM cytotoxicity assay, HL60
Assay type: cell-based
run.parameters: human, HL-60 cells (promyelocytic leukaemia); HL60, 3-day Calcein-AM assay; read-out: Cytotoxic activity IC50
Counter-ions that a name gives are not always drawn.
property.label: IC50 at 72 h

# IC50 at 72 h of Oc1ccc(CNc2ncnc3nc[nH]c23)cc1 [para-topolin mesylate] = > 167 µM
